- protocolNotes: inhibitors of TNFa-induced NFkB p65 translocation, primary screen, imaging, HUVEC, MLSMR starter and 10KST1 sets (AID 438);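 also: compound added about 3h40 before a 20 min TNFalpha stimulation; signal is the nuclear over cytoplasmic p65 intensity ratio per well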
- testConditions: HUVEC TNFa-induced p65 nuclear translocation; at 2 µM, stronger effect = higher value, 0% TNFa-plus-vehicle, 100% no-TNFa wells
readoutKind: inhibition (%)

[[record]]
molecule = "COC(=O)[C@H](C)NC(=O)Nc1cc(OC)ccc1OC"
unitannotation = "%"
reading = -15.2

[[record]]
molecule = "CC(C)(C)NC(=O)CN(C(=O)CS(=O)CC(=O)Nc1ccc(F)cc1)c1ccc(Cl)cc1 (stereo not drawn)"
unitannotation = "%"
reading = -4.2

[[record]]
molecule = "COCC(=O)Nc1cc(OC)ccc1OC"
unitannotation = "%"
reading = -7

[[record]]
molecule = "N#Cc1ccccc1Cn1c(=O)n(Cc2ccc(C(=O)NCc3ccco3)cc2)c(=O)c2ccccc21"
unitannotation = "%"
reading = -11.4

[[record]]
molecule = "Cn1c(=O)c2c(nc(-n3ccnc3)n2C)n(C)c1=O"
unitannotation = "%"
reading = -8.5

[[record]]
molecule = "Cn1c(=O)cc(OCC(=O)NCCCN2CCN(c3cccc(Cl)c3)CC2)c2ccccc21"
unitannotation = "%"
reading = 8

[[record]]
molecule = "COc1ccc2c(c1OC)C(=O)N(c1ccc3c(c1)CCC3)C2=O"
unitannotation = "%"
reading = -13.1

[[record]]
molecule = "CCCC(=O)Nc1ccccc1-c1nnn(CC(=O)Nc2ccc(OCC)cc2)n1"
unitannotation = "%"
reading = 3

[[record]]
molecule = "Cc1ccc2c(c1)N(CC(=O)Nc1ccc3c(c1)OCCO3)C(=O)CO2"
unitannotation = "%"
reading = -4.9

[[record]]
molecule = "N#Cc1cc2c(nc1SCC(=O)Nc1sc3c(c1C#N)CCC3)CCCCC2"
unitannotation = "%"
reading = 5.3

[[record]]
molecule = "Cn1nnnc1SCc1cn2cccnc2n1"
unitannotation = "%"
reading = 0.3

[[record]]
molecule = "CN(C)S(=O)(=O)c1ccc(C(=O)NCc2cccs2)cc1"
unitannotation = "%"
reading = 4.7

[[record]]
molecule = "CCOC(=O)C1=C(C)NC2=C(C(=O)CC(C)(C)C2)C1c1ccc(N(C)C)cc1 (stereo not drawn)"
unitannotation = "%"
reading = -7.9

[[record]]
molecule = "O=C(CN1C(=O)NC2(CCCCC2)C1=O)Nc1ccc(S(=O)(=O)N2CCOCC2)cc1"
unitannotation = "%"
reading = 5.2

[[record]]
molecule = "Nc1sccc1C(=O)c1ccc(Cl)cc1"
unitannotation = "%"
reading = 0

[[record]]
molecule = "Cc1ccc(C(C)C)c(OCCn2c(=O)oc3ccccc32)c1"
unitannotation = "%"
reading = -5.9

[[record]]
molecule = "COc1ccccc1-c1nc2n(n1)C(c1ccc(Cl)cc1)C(C(N)=O)=C(C)N2 (stereo not drawn)"
unitannotation = "%"
reading = 1.8

[[record]]
molecule = "CCOc1ccccc1N(CC(=O)N1CCOCC1)S(=O)(=O)c1ccccc1"
unitannotation = "%"
reading = 0.7


----------
- protocolNotes: reduction of polyQ htt aggregates in cells – imaging, exon1htt(103Q)mCFP cells, high-content imaging, primary screen (AID 483);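 also: compound exposure lasted 3 days before fixation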
- testConditions: exon1htt(103Q)mCFP cell line, aggregate imaging, at 2 µM; stronger effect = higher value
readoutKind: inhibition of aggregation (%)

[[record]]
molecule = "COCCOC(=O)/C=C1/NC(=O)CS1"
readoutkind = "inhibition of aggregation"
reading = 9.1

[[record]]
molecule = "CC(=O)NCCc1nc2ccccc2[nH]1"
readoutkind = "inhibition of aggregation"
reading = -14

[[record]]
molecule = "Cc1ccc(NC(=O)C2CCCN(S(=O)(=O)c3cnc[nH]3)C2)cc1F (stereo not drawn)"
readoutkind = "inhibition of aggregation"
reading = 7.3

[[record]]
molecule = "COc1ccccc1-n1c(-c2cccnc2)n[nH]c1=S"
readoutkind = "inhibition of aggregation"
reading = 17.2

[[record]]
molecule = "COc1ccc2c(c1)C(C)=CC(C)(C)N2C(=O)CSc1nnc(-c2ccc(C)cc2)o1"
readoutkind = "inhibition of aggregation"
reading = 8.3

[[record]]
molecule = "O=C(NC1=NCCS1)NC12CC3CC(CC(C3)C1)C2"
readoutkind = "inhibition of aggregation"
reading = 6.6

[[record]]
molecule = "CC1=C(C(N)=O)C(c2cccnc2)n2nc(SCc3ccccc3Cl)nc2N1 (stereo not drawn)"
readoutkind = "inhibition of aggregation"
reading = -13.4

[[record]]
molecule = "O=S(=O)(NCc1ccccc1)c1ccc2c(c1)OCCO2"
readoutkind = "inhibition of aggregation"
reading = -10.8

[[record]]
molecule = "CN=Cc1cc(-c2ccccc2)sc1O"
readoutkind = "inhibition of aggregation"
reading = -19.3

[[record]]
molecule = "COC(=O)c1ccccc1NC(=O)C1CCN(S(=O)(=O)c2cc(C)ccc2OC)CC1"
readoutkind = "inhibition of aggregation"
reading = -20.2

[[record]]
molecule = "CC(=O)c1ccc(-n2nnnc2SCC(=O)N2CCc3ccccc3C2)cc1"
readoutkind = "inhibition of aggregation"
reading = 12.1

[[record]]
molecule = "CCN1CCN(C(=O)Cn2ncc3ccsc3c2=O)CC1"
readoutkind = "inhibition of aggregation"
reading = 27.4

[[record]]
molecule = "S=c1[nH]nc(-c2ccccc2)n1C1C=CCCC1 (stereo not drawn)"
readoutkind = "inhibition of aggregation"
reading = 14.7


----------
- protocolNotes: reduction of polyQ htt aggregates in cells – imaging, exon1htt(103Q)mCFP cells, high-content imaging, primary screen (AID 483);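 also: compound exposure lasted 3 days before fixation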;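 as to nuclei count: percent of the per-plate median nuclei count of sample wells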
- testConditions: exon1htt(103Q)mCFP cell line, aggregate imaging, at 2 µM; measured here: cell count, toxicity
Rule: nuclei count below 90% gives T. Equal to or above 90% gives F.

[[record]]
compound = "CCOc1ccc2nc(NC(=O)C3CCCN(S(=O)(=O)c4c(C)noc4C)C3)sc2c1 (stereo not drawn)"
labelclass = "F"

[[record]]
compound = "CC(C)[C@H](NC(=O)OC(C)(C)C)c1nnc(SCc2cccc(F)c2)o1"
labelclass = "F"

[[record]]
compound = "COc1ccc(OC)c(S(=O)(=O)N2c3ccccc3CC2C)c1 (stereo not drawn)"
labelclass = "T"

[[record]]
compound = "COc1cccc(C2=NOC(C(=O)N3CCc4ccccc4C3)C2)c1 (stereo not drawn)"
labelclass = "F"

[[record]]
compound = "COc1cc(CN2CCC(C(=O)NC3CCCC3)CC2)ccc1O"
labelclass = "T"

[[record]]
compound = "CCN(CC)CCNC(=O)c1ccc(N2CCCCC2)c(NS(=O)(=O)c2ccc(C)cc2)c1"
labelclass = "F"

[[record]]
compound = "Cc1occc1-c1nnc(SCC(=O)N2CCc3ccccc32)o1"
labelclass = "T"

[[record]]
compound = "O=C(CCn1c(=S)[nH]c2ccccc2c1=O)NCC1CCCO1 (stereo not drawn)"
labelclass = "F"

[[record]]
compound = "CCN1CCCC1CNC(=O)c1cc2c(=O)n(C)c3ccccc3c2n1C (stereo not drawn)"
labelclass = "F"

[[record]]
compound = "O=C1CC(c2cccc(Cl)c2)Cc2nc(N3CCN(c4ccccc4)CC3)ncc21 (stereo not drawn)"
labelclass = "F"

[[record]]
compound = "COCCN(CCOC)Cc1c(C)[nH]c2ccccc2c1=O"
labelclass = "F"

[[record]]
compound = "Cn1c(=O)c2c(-c3ccccc3)n(CCCN3CCOCC3)cc2n(C)c1=O"
labelclass = "F"

[[record]]
compound = "O=C(Nc1ccccc1N1CCOCC1)c1ccc2ccccc2n1"
labelclass = "F"

[[record]]
compound = "O=C(O)C1CCCCC1C(=O)NCCc1ccccc1 (stereo not drawn)"
labelclass = "F"

[[record]]
compound = "Cc1ccc(-c2noc(CN3CCN(c4ccccc4F)CC3)n2)cc1"
labelclass = "T"

[[record]]
compound = "CC1(C)CC(=O)N(CC(=O)NCc2ccccc2)c2ccccc2S1(=O)=O"
labelclass = "F"

[[record]]
compound = "O=C1CN(Cc2ccccc2)C(=NCc2ccco2)S1"
labelclass = "F"

[[record]]
compound = "O=C(O)Cn1nc2ccccc2n1"
labelclass = "F"

[[record]]
compound = "Cc1ccc(N=Cc2ccc[nH]2)c(O)c1"
labelclass = "F"

[[record]]
compound = "Cc1cccc(NC(=O)CCN2CCN(C/C=C/c3ccccc3)CC2)c1"
labelclass = "F"


----------
- protocolNotes: blockers of RIG-like receptor reporter activation – cell-based, Sendai virus stimulus, luciferase, 10K MLSCN set, TLR/RLR signaling modifier project, primary screen (AID 602276);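 also: firefly luciferase from ISG56 promoter only with Renilla not read in this screen; 0% = Sendai virus plus DMSO and 100% = medium plus DMSO without virus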
- testConditions: HEK293 RL24 IRF3 luciferase reporter, at 10 µM, stronger effect = higher value
readoutKind: inhibition (%)

[[record]]
compound = "CC(C)CCNC(=O)C(C)N(Cc1ccc(F)cc1)C(=O)c1ccc(CN2CCCCC2)o1 (stereo not given)"
readoutkind = "inhibition"
reading = 7.35

[[record]]
compound = "O=C1Nc2ccccc2OC1CC(=O)N1CCCC1 (stereo not given)"
readoutkind = "inhibition"
reading = 6.75

[[record]]
compound = "CC(C)CNS(=O)(=O)c1ccc(CCC(=O)N2CCOCC2)cc1"
readoutkind = "inhibition"
reading = 8.44

[[record]]
compound = "CCOc1cc(S(=O)(=O)N2CCC(Cc3ccccc3)CC2)c(OCC)cc1-n1cnnn1"
readoutkind = "inhibition"
reading = -0.144

[[record]]
compound = "COC(=O)C(C)Sc1nc2c(c(=O)n1-c1ccccc1)SCC2 (stereo not given)"
readoutkind = "inhibition"
reading = 7.35


Hey, just so you know, these numbers are from PubChem BioAssay.
